test system: HMG-CoA reductase; test: HMG-CoA Reductase Inhibition Assay (in vitro, intrinsic inhibition); assay type: biochemical; settings: IC50 of test compound compared with compactin determined simultaneously, compactin assigned 100; tested as sodium salt of dihydroxy acid form; solubilized rat liver microsomal enzyme
QUANTITY_KIND: Relative Potency

Reference set (2 entries):
INSERT INTO results (smiles_data, quantity_kind, assay_result) VALUES
  ('C[C@H]1C=C2C=C[C@H](C)[C@H](CC[C@@H](O)C[C@@H](O)CC(=O)O)[C@H]2[C@@H](OC(=O)C(C)(C)c2ccc(O)c(F)c2)C1', 'Relative Potency', 217),
  ('COc1ccc(C(C)(C)C(=O)O[C@H]2C[C@@H](C)C=C3C=C[C@H](C)[C@H](CC[C@@H](O)C[C@@H](O)CC(=O)O)[C@H]32)cc1', 'Relative Potency', 144);

I. CCOc1ccc(C(C)(C)C(=O)O[C@H]2C[C@@H](C)C=C3C=C[C@H](C)[C@H](CC[C@@H](O)C[C@@H](O)CC(=O)O)[C@H]32)cc1
II. C[C@H]1C=C2C=C[C@H](C)[C@H](CC[C@@H](O)C[C@@H](O)CC(=O)O)[C@H]2[C@@H](OC(=O)C(C)(C)CCc2ccccc2)C1
III. C[C@H]1C=C2C=C[C@H](C)[C@H](CC[C@@H](O)C[C@@H](O)CC(=O)O)[C@H]2[C@@H](OC(=O)C(C)(C)Cc2ccc(O)cc2)C1
### Prompt # desc sort on Relative Potency across 3 molecules Answer format: the labels, in the requested order.
### Response III, II, I
(III: 280, II: 100, I: 47)

P. C[C@H]1C=C2C=C[C@H](C)[C@H](CC[C@@H](O)C[C@@H](O)CC(=O)O)[C@H]2[C@@H](OC(=O)C(C)(C)c2ccccc2)C1
Q. C[C@H]1C=C2C=C[C@H](C)[C@H](CC[C@@H](O)C[C@@H](O)CC(=O)O)[C@H]2[C@@H](OC(=O)C(C)(C)c2ccc(CO)cc2)C1
R. C[C@H]1C=C2C=C[C@H](C)[C@H](CC[C@@H](O)C[C@@H](O)CC(=O)O)[C@H]2[C@@H](OC(=O)C(C)(C)c2ccc(O)cc2)C1
S. C[C@H]1C=C2C=C[C@H](C)[C@H](CC[C@@H](O)C[C@@H](O)CC(=O)O)[C@H]2[C@@H](OC(=O)C(C)(C)Cc2cc(O)cc(O)c2)C1
### Prompt Please produce an ascending ranking of these molecules based on Relative Potency. Answer format: the labels, ordered as requested.
### Response Q, P, R, S
